# Test system: hFASN enzyme (full length) (Homo sapiens)
# Construct: 10 μL hFASN enzyme (full length, 300 ng, purified in house); made in house
# Assay notes: Fatty Acid Synthase (FASN) inhibition scintillation proximity assay
# Format: biochemical
# Experimental setup: read-out: Human FASN pIC50 (converted)
Value kind: IC50

Cc1cc(-c2ccc3cc(F)ccc3c2)ccc1C1=NC2(CC2)C(=O)N1CC1CN(C(=O)C2CCO2)C1 (stereo not shown) [compound 223] ... 53.7 nM
O=C(C1CC1)N1CC[C@@H](CN2C(=O)C3(CC3)N=C2c2ccc(-c3ccc4cccnc4c3)cc2F)C1 [compound 249] ... 17 nM
COC(=O)N1CC(CN2C(=O)C3(CCOCC3)N=C2c2ccc(-c3ccc4c(cnn4C)c3)cc2)C1 [compound 941] ... > 10000 nM
O=C(C1CC1)N1CC(CN2C(=O)C3(CC3)N=C2c2ccc(-c3ccc4[nH]ccc4c3)c(F)c2)C1 [compound 440] ... 195 nM
Cc1cc(-c2ccc3cc(C#N)ccc3c2)ccc1C1=NC2(CC2)C(=O)N1CC1CN(C(=O)C2(C)CC2)C1 [compound 269] ... 22.4 nM
O=C(C1CC1)N1CC(CN2C(=O)C3(CC3)N=C2c2ccc(-c3ccc4nn(CC5CC5)cc4c3)cc2)C1 [compound 501] ... 8320 nM
O=C(N1CC(CN2C(=O)C3(CCOCC3)N=C2c2ccc(-c3ccc4occc4c3)cc2)C1)C(F)(F)F [compound 961] ... > 10000 nM
O=C(N1CC(CN2C(=O)C3(CC3)N=C2c2ccc(-c3ccc4ccc(F)cc4c3)cc2F)C1)C1(O)CC1 [compound 384] ... 63.1 nM
Cc1cc(-c2ccc3c(cnn3C)c2)ccc1C1=NC2(CC2)C(=O)N1CC1CN(C(=O)c2cccnc2)C1 [compound 805] ... > 10000 nM
O=C(N1CC(CN2C(=O)C3(CCOC3)N=C2c2ccc(-c3ccc4occc4c3)cc2)C1)C(F)(F)F (stereo not shown) [compound 897] ... > 10000 nM
O=C(C1CC1)N1CC(CN2C(=O)C3(CC3)N=C2c2ccc(-c3ccc4cc(F)ccc4c3)cc2F)C1 [compound 349] ... 16.6 nM
Cc1sc2ccc(-c3ccc(C4=NC5(CC5)C(=O)N4C[C@@H]4CCN(C(=O)C5CC5)C4)cc3F)cc2c1C [compound 406] ... 126 nM
Cc1nc2ccc(-c3ccc(C4=NC5(CC5)C(=O)N4CC4CN(C(=O)C5CC5)C4)c(F)c3)cc2s1 [compound 558] ... 186 nM
O=C(c1nccs1)N1CC[C@@H](CN2C(=O)C3(CCOC3)N=C2c2ccc(-c3ccc4cccnc4c3)cc2)C1 (stereo partly shown) [compound 920] ... > 10000 nM
CC(C)C(=O)N1CCC2(CC1)N=C(c1ccc(-c3ccc4c(cnn4C)c3)cc1)N(C[C@@H]1CCN(C(=O)C3CC3)C1)C2=O [compound 139] ... 174 nM
O=C(C1CC1)N1CCC(CN2C(=O)C3(CC3)N=C2c2ccc(-c3cccc(O)c3)cc2)CC1 [compound 108] ... 1510 nM
Cc1cc(-c2ccc3c(Cl)nn(C)c3c2)ccc1C1=NC2(CC2)C(=O)N1CC1CN(C(=O)C2CC2)C1 [compound 590] ... 1740 nM
Cc1cc(-c2cc(C)c3ccc(Br)cc3n2)ccc1C1=NC2(CC2)C(=O)N1CC1CN(C(=O)C2(C)CC2)C1 [compound 605] ... 6610 nM
O=C(N1CCCC1)N1CC(CN2C(=O)C3(CCOCC3)N=C2c2ccc(-c3ccc4cccnc4c3)cc2)C1 [compound 701] ... 479 nM
Cn1cnc2cc(-c3ccc(C4=NC5(CC5)C(=O)N4CC4CN(C(=O)C5(O)CC5)C4)c(F)c3)ccc21 [compound 377] ... 35.5 nM
O=C(C1CC1)N1CC(CN2C(=O)C3(CC3)N=C2c2ccc(-c3ccc4c(Cl)ccnc4c3)cc2)C1 [compound 563] ... 631 nM
CCCc1ccc(-c2ccc(C3=NC4(CC4)C(=O)N3CC3CN(C(=O)C4CC4)C3)cc2)cn1 [compound 795] ... > 10000 nM
O=C(C1CC1)N1CC[C@@H](CN2C(=O)C3(CCOC3)N=C2c2ccc(-c3ccc4cccnc4c3)cc2)C1 (stereo partly shown) [compound 680] ... 79.4 nM
O=C(C1CC1)N1CC(CN2C(=O)C3(CC3)N=C2c2ccc(-c3ccc4c(cnn4CCO)c3)cc2F)C1 [compound 527] ... 1580 nM
Cn1nccc1-c1ccc(-c2ccc(C3=NC4(CC4)C(=O)N3C[C@@H]3CCN(C(=O)C4(C)CC4)C3)c(F)c2)cc1 [compound 362] ... 77.6 nM
Cc1cc(-c2cccc3[nH]ncc23)ccc1C1=NC2(CC2)C(=O)N1CC1CN(C(=O)C2CC2)C1 [compound 304] ... 97.7 nM
Cn1ncc2cc(-c3ccc(C4=NC5(CC5)C(=O)N4C[C@@H]4CCN(C(=O)C5COC5)C4)cc3)ccc21 [compound 490] ... 331 nM
Cn1ncc2cc(-c3ccc(C4=NC5(CCOCC5)C(=O)N4CC4CN(C(=O)[C@H]5CCCO5)C4)cc3)ccc21 [compound 708] ... 1860 nM

###

Reported IC50 by item:
# Test system: hFASN enzyme (full length) (Homo sapiens, UniProt P49327)
# Construct: 10 μL hFASN enzyme (full length, 300 ng, purified in house); made in house
# Sequence (P49327 whole entry): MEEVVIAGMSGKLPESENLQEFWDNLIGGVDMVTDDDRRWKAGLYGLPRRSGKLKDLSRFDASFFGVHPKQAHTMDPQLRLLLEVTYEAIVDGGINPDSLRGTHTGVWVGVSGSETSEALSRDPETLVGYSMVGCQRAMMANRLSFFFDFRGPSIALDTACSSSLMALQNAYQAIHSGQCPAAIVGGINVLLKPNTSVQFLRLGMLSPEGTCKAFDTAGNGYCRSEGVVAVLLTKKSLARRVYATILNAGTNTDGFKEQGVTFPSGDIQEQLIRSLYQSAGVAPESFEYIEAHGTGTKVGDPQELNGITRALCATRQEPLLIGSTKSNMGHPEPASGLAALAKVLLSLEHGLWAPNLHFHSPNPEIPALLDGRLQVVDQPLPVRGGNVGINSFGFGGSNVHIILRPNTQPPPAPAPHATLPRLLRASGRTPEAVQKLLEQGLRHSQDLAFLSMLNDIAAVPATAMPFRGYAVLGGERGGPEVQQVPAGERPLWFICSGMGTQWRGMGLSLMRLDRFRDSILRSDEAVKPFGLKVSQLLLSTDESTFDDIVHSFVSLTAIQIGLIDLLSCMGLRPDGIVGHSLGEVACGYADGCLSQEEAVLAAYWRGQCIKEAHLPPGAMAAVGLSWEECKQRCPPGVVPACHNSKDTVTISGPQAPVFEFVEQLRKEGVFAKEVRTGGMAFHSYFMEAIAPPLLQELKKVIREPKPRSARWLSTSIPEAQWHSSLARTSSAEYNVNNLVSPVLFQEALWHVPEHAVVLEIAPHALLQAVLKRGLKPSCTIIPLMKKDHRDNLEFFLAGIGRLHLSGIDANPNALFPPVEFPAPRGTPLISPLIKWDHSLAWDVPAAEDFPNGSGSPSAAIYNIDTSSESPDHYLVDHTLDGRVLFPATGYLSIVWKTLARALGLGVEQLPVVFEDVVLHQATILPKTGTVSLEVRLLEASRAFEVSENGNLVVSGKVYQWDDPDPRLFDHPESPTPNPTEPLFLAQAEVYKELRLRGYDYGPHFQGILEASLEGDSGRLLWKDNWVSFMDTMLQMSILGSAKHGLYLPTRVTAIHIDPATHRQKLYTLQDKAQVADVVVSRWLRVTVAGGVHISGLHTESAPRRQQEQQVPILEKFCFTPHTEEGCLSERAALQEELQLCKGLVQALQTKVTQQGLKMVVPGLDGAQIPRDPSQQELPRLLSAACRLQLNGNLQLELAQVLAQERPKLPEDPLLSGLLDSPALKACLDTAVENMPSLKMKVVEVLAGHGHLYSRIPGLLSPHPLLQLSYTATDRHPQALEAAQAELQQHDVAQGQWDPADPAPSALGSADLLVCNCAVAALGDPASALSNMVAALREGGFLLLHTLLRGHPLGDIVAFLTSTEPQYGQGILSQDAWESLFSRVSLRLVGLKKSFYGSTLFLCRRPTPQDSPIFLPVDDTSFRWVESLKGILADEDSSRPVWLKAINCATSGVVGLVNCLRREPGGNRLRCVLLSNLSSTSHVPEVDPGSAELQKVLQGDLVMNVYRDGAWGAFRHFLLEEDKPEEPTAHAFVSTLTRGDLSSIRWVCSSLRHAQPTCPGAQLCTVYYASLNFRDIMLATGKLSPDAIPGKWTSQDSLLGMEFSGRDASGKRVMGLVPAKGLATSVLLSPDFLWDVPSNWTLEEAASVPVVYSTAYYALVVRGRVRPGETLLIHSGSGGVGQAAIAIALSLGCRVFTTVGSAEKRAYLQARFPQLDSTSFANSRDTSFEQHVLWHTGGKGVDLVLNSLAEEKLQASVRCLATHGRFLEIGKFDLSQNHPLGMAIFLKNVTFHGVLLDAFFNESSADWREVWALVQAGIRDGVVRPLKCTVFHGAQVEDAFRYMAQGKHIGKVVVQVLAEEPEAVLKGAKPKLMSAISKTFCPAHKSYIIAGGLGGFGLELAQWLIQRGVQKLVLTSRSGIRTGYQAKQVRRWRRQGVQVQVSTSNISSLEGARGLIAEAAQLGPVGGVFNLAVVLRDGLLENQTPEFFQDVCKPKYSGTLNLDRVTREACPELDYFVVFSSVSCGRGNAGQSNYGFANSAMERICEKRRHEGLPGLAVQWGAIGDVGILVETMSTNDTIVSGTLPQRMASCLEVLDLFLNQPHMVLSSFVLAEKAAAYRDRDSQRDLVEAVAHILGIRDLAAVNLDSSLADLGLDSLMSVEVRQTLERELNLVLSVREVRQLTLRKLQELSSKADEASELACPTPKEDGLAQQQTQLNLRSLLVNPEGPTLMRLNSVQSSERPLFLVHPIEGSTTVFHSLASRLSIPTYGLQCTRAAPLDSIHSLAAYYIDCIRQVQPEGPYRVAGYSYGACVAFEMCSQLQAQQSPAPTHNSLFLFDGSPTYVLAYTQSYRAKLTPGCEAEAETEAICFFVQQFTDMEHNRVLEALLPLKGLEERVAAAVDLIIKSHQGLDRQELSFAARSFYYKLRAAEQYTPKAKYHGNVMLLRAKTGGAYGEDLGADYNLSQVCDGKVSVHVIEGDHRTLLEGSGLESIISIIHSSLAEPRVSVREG
# Assay notes: Fatty Acid Synthase (FASN) inhibition scintillation proximity assay
# Format: biochemical
# Experimental setup: read-out: Human FASN pIC50 (converted)
Value kind: IC50 (nM)

Cc1cc(-c2ccc3occc3c2)ccc1C1=NC2(CCCC2)C(=O)N1C[C@@H]1CCN(C(=O)C2CC2)C1 [compound 72] ... 47.9
CC(C)N1CCC2(CC1)N=C(c1ccc(-c3ccc4[nH]ccc4c3)cc1)N(C[C@@H]1CCN(C(=O)C3CC3)C1)C2=O [compound 744] ... 115
O=C(C1CC1)N1CC(CN2C(=O)C3(CC3)N=C2c2ccc(-c3ccc4ccccc4c3)cc2F)C1 [compound 368] ... 28.2
COC(=O)N1CC2(C1)N=C(c1ccc(-c3ccc4occc4c3)cc1)N(C[C@@H]1CCN(C(=O)[C@H]3CCCO3)C1)C2=O [compound 735] ... 135
CC(C)C(=O)N1CCC2(CC1)N=C(c1ccc(-c3ccc4cnccc4c3)cc1)N(CC1CN(C(=O)C3CC3)C1)C2=O [compound 137] ... 178
O=C(C1CC1)N1CC[C@@H](CN2C(=O)C3(CC3)N=C2c2ccc(-c3ccc4c(c3)N=CC4)s2)C1 [compound 426] ... 347
Cn1ncc2c(-c3ccc(C4=NC5(CC5)C(=O)N4CC4CN(C(=O)C5CC5)C4)cc3)cccc21 [compound 515] ... 182
O=C([C@H]1CCCO1)N1CC[C@@H](CN2C(=O)C3(CCOC3)N=C2c2ccc(-c3ccc4cccnc4c3)cc2)C1 (stereo partly shown) [compound 682] ... 115
Cn1ncc2cc(-c3ccc(C4=NC5(CC5)C(=O)N4C[C@@H]4CCN(C(=O)C5(O)CC5)C4)c(F)c3)ccc21 [compound 370] ... 28.8
CC(C)C(=O)N1CCC2(CC1)N=C(c1ccc(-c3ccc4c(cnn4C)c3)cc1)N(CC1CN(C(=O)C3CC3)C1)C2=O [compound 135] ... 2450
O=C(C1CC1)N1CC(CN2C(=O)C3(CC3)N=C2c2ccc(-c3ccc(Br)cn3)cc2)C1 [compound 887] ... 4070
Cc1cc(-c2ccc3[nH]ccc3c2)ccc1C1=NC2(CCCC2)C(=O)N1C[C@@H]1CCN(C(=O)C2CC2)C1 [compound 73] ... 33.1
Cc1cc(-c2ccc(-c3cnn(C)c3)cc2)ccc1C1=NC2(CC2)C(=O)N1CC1CN(C(=O)C2CC2)C1 [compound 333] ... 55
Cn1cc2cc(-c3ccc(C4=NC5(CC5)C(=O)N4CC4CN(C(=O)C5CC5)C4)c(F)c3)ccc2n1 [compound 644] ... 178
O=C(C1CC1)N1CC[C@@H](CN2C(=O)C3(CCN(C(=O)C(F)(F)F)CC3)N=C2c2ccc(-c3ccc4[nH]ccc4c3)cc2)C1 [compound 751] ... 135
Cc1ccc2cc(-c3ccc(C4=NC5(CC5)C(=O)N4CC4CN(C(=O)C5CC5)C4)cc3)ccc2n1 [compound 510] ... 955
O=C(C1CC1)N1CC[C@@H](CN2C(=O)C3(CC3)N=C2c2ccc(-c3nc4ccccc4o3)cc2)C1 [compound 307] ... 67.6
Cc1cc(-c2cccc(SC3CC3)c2)ccc1C1=NC2(CC2)C(=O)N1CC1CN(C(=O)C2CC2)C1 [compound 650] ... 1350
CC(O)C(=O)N1CC[C@@H](CN2C(=O)C3(CCOCC3)N=C2c2ccc(-c3ccc4occc4c3)cc2)C1 (stereo partly shown) [compound 668] ... 1170
Cc1cc(-c2ccc3c(c2)cc(C)n3C)ccc1C1=NC2(CC2)C(=O)N1CC1CN(C(=O)C2CC2)C1 [compound 582] ... 324
Cc1cc(C2=NC3(CC3)C(=O)N2C[C@@H]2CCN(C(=O)C3CC3)C2)ccc1-c1ccc2oc(C#N)cc2c1 [compound 476] ... 263
